- study.target: human ether-à-go-go-related gene (hERG) potassium channel (human);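 also: peak tail current of the secondary pulse compared with the same well before compound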
- Sequence (Q12809 whole entry, looked up): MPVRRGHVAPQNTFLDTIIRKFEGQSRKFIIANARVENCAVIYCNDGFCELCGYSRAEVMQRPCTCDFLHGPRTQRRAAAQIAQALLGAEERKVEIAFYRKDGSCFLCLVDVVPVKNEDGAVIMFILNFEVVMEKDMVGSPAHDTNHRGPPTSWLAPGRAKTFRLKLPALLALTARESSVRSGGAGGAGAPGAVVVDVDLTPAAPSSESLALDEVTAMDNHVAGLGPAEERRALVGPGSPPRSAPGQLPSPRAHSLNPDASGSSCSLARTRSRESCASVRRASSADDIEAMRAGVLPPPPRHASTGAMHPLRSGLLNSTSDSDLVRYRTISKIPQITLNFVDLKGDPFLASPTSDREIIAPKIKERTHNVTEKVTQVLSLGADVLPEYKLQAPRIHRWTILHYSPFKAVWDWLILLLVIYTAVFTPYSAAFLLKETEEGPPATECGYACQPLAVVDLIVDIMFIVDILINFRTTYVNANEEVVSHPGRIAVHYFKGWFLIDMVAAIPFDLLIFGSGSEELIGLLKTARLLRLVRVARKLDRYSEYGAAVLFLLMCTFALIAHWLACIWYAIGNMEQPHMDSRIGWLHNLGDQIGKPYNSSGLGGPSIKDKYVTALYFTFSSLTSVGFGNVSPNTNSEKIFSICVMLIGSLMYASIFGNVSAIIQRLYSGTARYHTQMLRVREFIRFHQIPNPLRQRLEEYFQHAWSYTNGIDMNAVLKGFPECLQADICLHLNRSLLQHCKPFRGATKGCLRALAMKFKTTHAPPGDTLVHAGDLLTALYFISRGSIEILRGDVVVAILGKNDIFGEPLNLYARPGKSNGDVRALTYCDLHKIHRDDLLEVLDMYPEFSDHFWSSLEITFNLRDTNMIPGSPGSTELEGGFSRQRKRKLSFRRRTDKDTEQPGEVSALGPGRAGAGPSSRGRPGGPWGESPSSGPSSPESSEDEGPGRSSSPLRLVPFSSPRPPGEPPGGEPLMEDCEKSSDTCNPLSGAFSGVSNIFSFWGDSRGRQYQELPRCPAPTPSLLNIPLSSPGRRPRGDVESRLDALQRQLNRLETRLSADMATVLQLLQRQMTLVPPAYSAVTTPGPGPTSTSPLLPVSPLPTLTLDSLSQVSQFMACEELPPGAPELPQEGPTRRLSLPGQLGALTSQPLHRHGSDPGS
- method: primary screen, population patch clamp on CHO cells stably expressing hERG; higher = less effect of the substance
The campaign covered roughly 310,000 compounds. About 14,000 (4.5%) showed an effect of 50% or more. Effects have a minus sign here. For the sample, strong results were picked, then their nearest neighbours and some compounds at random.
Known hERG current change (%, negative = inhibition) at 10uM of a selection of molecules
All answers are understood in %, so give the number only.

Sample answers from the record:
{"molecule": "CSc1ccc(CNc2cccc3ccccc23)cc1", "study.target": "human ether-à-go-go-related gene (hERG) potassium channel (human)", "unit.symbol": "%", "reading": 2.23}
{"molecule": "CC(C)(C)c1cc(NC(=O)C2CCCO2)no1 (stereo not drawn)", "study.target": "human ether-à-go-go-related gene (hERG) potassium channel (human)", "unit.symbol": "%", "reading": 11.6}
{"molecule": "O=C(NCCc1ccccc1)C1(S(=O)(=O)c2ccc(Cl)cc2)CC1", "study.target": "human ether-à-go-go-related gene (hERG) potassium channel (human)", "unit.symbol": "%", "reading": 6.29}
{"molecule": "O=C(NCCCN1CCCCC1)C1(S(=O)(=O)c2ccc(Cl)cc2)CC1", "study.target": "human ether-à-go-go-related gene (hERG) potassium channel (human)", "unit.symbol": "%", "reading": -32.3}
{"molecule": "Cc1cc(N2CCCC2)ccc1C=C(C#N)C#N", "study.target": "human ether-à-go-go-related gene (hERG) potassium channel (human)", "unit.symbol": "%", "reading": -13.2}

Record CNC(=O)Nc1ccc(Cl)cc1 , field hERG current change (%, negative = inhibition) at 10uM: 7.56

The molecule listed as CCC(CC)C1C(C#N)=C(N)Oc2cc(C)oc(=O)c21 (stereo not drawn) has a reported hERG current change (%, negative = inhibition) at 10uM of -12.7

The value of hERG current change (%, negative = inhibition) at 10uM measured for the molecule CC(C(=O)N(C)C1CCCCC1)N1CCC(C(N)=O)CC1 (stereo not drawn) turned out to be 25

For N#CC(C#N)=Cc1ccc(N2CCCC2)cc1 the molecule record lists hERG current change (%, negative = inhibition) at 10uM as 4.17

What the record says about CC(c1c(O)c2ccccc2[nH]c1=O)C1(C)CCC(O)C(C)(C)O1 (stereo not drawn) : hERG current change (%, negative = inhibition) at 10uM is -2.48

GET /value?item= CCOc1cccc2c1OC1(C)CC2NC(=O)N1c1cccc(C(=O)N2CCN(c3ccccn3)CC2)c1 (stereo not drawn) &field=hERG current change (%, negative = inhibition) at 10uM returns -1.89

Documented hERG current change (%, negative = inhibition) at 10uM of Cc1cc(C=C(C#N)C#N)ccc1N1CCCC1 : -65

---

- study.target: human ether-à-go-go-related gene (hERG) potassium channel (human);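 also: peak tail current of the secondary pulse compared with the same well before compound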
- method: primary screen, population patch clamp on CHO cells stably expressing hERG; higher = less effect of the substance
The campaign covered roughly 310,000 compounds. About 14,000 (4.5%) showed an effect of 50% or more. Effects have a minus sign here. This is one part of a sample in which strong results are shown more often than they occur.
reported.metric: hERG current change (%, negative = inhibition) at 10uM (%)
Give a bare numeral; the unit % is implied.

Solved cases below.
{"compound": "O=C1Nc2ccc(Br)cc2C12NNc1ccccc1O2 (stereo not shown)", "study.target": "human ether-à-go-go-related gene (hERG) potassium channel (human)", "reading": 23.9}
{"compound": "Cc1cc(C)c2c3c(sc2n1)C(=O)N(c1ccccc1C)CC(=O)N3", "study.target": "human ether-à-go-go-related gene (hERG) potassium channel (human)", "reading": 14.6}
{"compound": "CCCc1nn2c(=O)cc(CSCC(=O)Nc3ccc(F)cc3)nc2s1", "study.target": "human ether-à-go-go-related gene (hERG) potassium channel (human)", "reading": -1.51}
{"compound": "COc1ccc(C2/C=C\\CN(S(=O)(=O)c3ccc4ccccc4c3)CC(=O)N2Cc2ccc(F)cc2)cc1 (stereo not shown)", "study.target": "human ether-à-go-go-related gene (hERG) potassium channel (human)", "reading": 8.33}
{"compound": "COc1cccc(NC(=O)C2CCC2)c1", "study.target": "human ether-à-go-go-related gene (hERG) potassium channel (human)", "reading": 8.83}

So the reported hERG current change (%, negative = inhibition) at 10uM for CCOc1ccc(NC(=O)COC(=O)CNC(=O)c2ccc(-c3ccccc3)cc2)cc1 , on human ether-à-go-go-related gene (hERG) potassium channel (human), turned out to be 2.3

Here CCC(CC)C(=O)NCCc1ccc(OC)cc1 was tested on human ether-à-go-go-related gene (hERG) potassium channel (human), and its hERG current change (%, negative = inhibition) at 10uM came to 17.8

Query N#Cc1c(N)c(C(=O)c2ccccc2)n2ccccc12 on human ether-à-go-go-related gene (hERG) potassium channel (human); hERG current change (%, negative = inhibition) at 10uM returned: 10.7

Query COc1ccccc1C(=O)NC(=O)COc1cc(Cl)ccc1Cl on human ether-à-go-go-related gene (hERG) potassium channel (human); hERG current change (%, negative = inhibition) at 10uM returned: 0.882

Summary: COc1cccc(-c2cccc(NC(=O)C3CCN(C4CCC4)CC3)c2)c1 , human ether-à-go-go-related gene (hERG) potassium channel (human), hERG current change (%, negative = inhibition) at 10uM = -51.7

Reference source: paper PMC4336329
